Data origin: paper PMC12416549

target: T1, TNFR1 (Homo sapiens, UniProt P19438)
T1 chain: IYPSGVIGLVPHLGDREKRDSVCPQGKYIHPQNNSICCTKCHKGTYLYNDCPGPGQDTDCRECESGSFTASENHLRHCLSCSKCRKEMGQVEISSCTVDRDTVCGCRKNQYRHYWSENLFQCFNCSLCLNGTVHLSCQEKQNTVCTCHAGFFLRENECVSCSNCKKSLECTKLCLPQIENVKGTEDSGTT
protocolSummary: yeast display SC50
quantityName: apparent Kd (screen) (pM)
Numbers only, in pM.

Look over these answered cases.
binder	apparent Kd (screen) (pM)
P79N (designed binder) MTLQELLREEALRRAEAEAFRYALELLAEKFPEQKEYLLDLAEEIESQIRSLSGVDVEDVRKFLDKEWAWVKELLAEHNAELAEVEAARAARLAELRAEVEAKVAA	539
E73W (designed binder) MTLQELLREEALRRAEAEAFRYALELLAEKFPEQKEYLLDLAEEIESQIRSLSGVDVEDVRKFLDKEWAWVKWLLAEHPAELAEVEAARAARLAELRAEVEAKVAA	653
V71Y (designed binder) MTLQELLREEALRRAEAEAFRYALELLAEKFPEQKEYLLDLAEEIESQIRSLSGVDVEDVRKFLDKEWAWYKELLAEHPAELAEVEAARAARLAELRAEVEAKVAA	2480
A106N (designed binder) MTLQELLREEALRRAEAEAFRYALELLAEKFPEQKEYLLDLAEEIESQIRSLSGVDVEDVRKFLDKEWAWVKELLAEHPAELAEVEAARAARLAELRAEVEAKVAN	1690
E9T (designed binder) MTLQELLRTEALRRAEAEAFRYALELLAEKFPEQKEYLLDLAEEIESQIRSLSGVDVEDVRKFLDKEWAWVKELLAEHPAELAEVEAARAARLAELRAEVEAKVAA	956

Would you mind giving apparent Kd (screen) for every binder in the list below?
1. E86Q (designed binder) MTLQELLREEALRRAEAEAFRYALELLAEKFPEQKEYLLDLAEEIESQIRSLSGVDVEDVRKFLDKEWAWVKELLAEHPAELAEVQAARAARLAELRAEVEAKVAA
2. A88G (designed binder) MTLQELLREEALRRAEAEAFRYALELLAEKFPEQKEYLLDLAEEIESQIRSLSGVDVEDVRKFLDKEWAWVKELLAEHPAELAEVEAGRAARLAELRAEVEAKVAA
3. H78P (designed binder) MTLQELLREEALRRAEAEAFRYALELLAEKFPEQKEYLLDLAEEIESQIRSLSGVDVEDVRKFLDKEWAWVKELLAEPPAELAEVEAARAARLAELRAEVEAKVAA
4. I49N (designed binder) MTLQELLREEALRRAEAEAFRYALELLAEKFPEQKEYLLDLAEEIESQNRSLSGVDVEDVRKFLDKEWAWVKELLAEHPAELAEVEAARAARLAELRAEVEAKVAA
5. A98Y (designed binder) MTLQELLREEALRRAEAEAFRYALELLAEKFPEQKEYLLDLAEEIESQIRSLSGVDVEDVRKFLDKEWAWVKELLAEHPAELAEVEAARAARLAELRYEVEAKVAA

869
790
1690
2250
539

Would you mind giving apparent Kd (screen) for every binder in the list below?
1. K103T (designed binder) MTLQELLREEALRRAEAEAFRYALELLAEKFPEQKEYLLDLAEEIESQIRSLSGVDVEDVRKFLDKEWAWVKELLAEHPAELAEVEAARAARLAELRAEVEATVAA
2. E58Y (designed binder) MTLQELLREEALRRAEAEAFRYALELLAEKFPEQKEYLLDLAEEIESQIRSLSGVDVYDVRKFLDKEWAWVKELLAEHPAELAEVEAARAARLAELRAEVEAKVAA
3. R61H (designed binder) MTLQELLREEALRRAEAEAFRYALELLAEKFPEQKEYLLDLAEEIESQIRSLSGVDVEDVHKFLDKEWAWVKELLAEHPAELAEVEAARAARLAELRAEVEAKVAA
4. H78G (designed binder) MTLQELLREEALRRAEAEAFRYALELLAEKFPEQKEYLLDLAEEIESQIRSLSGVDVEDVRKFLDKEWAWVKELLAEGPAELAEVEAARAARLAELRAEVEAKVAA
5. Q48M (designed binder) MTLQELLREEALRRAEAEAFRYALELLAEKFPEQKEYLLDLAEEIESMIRSLSGVDVEDVRKFLDKEWAWVKELLAEHPAELAEVEAARAARLAELRAEVEAKVAA
6. L41R (designed binder) MTLQELLREEALRRAEAEAFRYALELLAEKFPEQKEYLLDRAEEIESQIRSLSGVDVEDVRKFLDKEWAWVKELLAEHPAELAEVEAARAARLAELRAEVEAKVAA

1. 956
2. 539
3. 1400
4. 593
5. 1160
6. 15200
